All figures here come from patent US20230250096A1.

Below, each of the compounds is paired with its reported pIC50 value.
Target: menin/MLL (terbium chelate-labeled menin, FITC-MBM1 peptide) (Homo sapiens, UniProt O00255, T541A)
Construct: Menin (a.a 1-610-6xhis tag, 2.3 mg/mL in 20 mM Hepes)
Sequence (O00255 with tags, fused parts or gaps T541A): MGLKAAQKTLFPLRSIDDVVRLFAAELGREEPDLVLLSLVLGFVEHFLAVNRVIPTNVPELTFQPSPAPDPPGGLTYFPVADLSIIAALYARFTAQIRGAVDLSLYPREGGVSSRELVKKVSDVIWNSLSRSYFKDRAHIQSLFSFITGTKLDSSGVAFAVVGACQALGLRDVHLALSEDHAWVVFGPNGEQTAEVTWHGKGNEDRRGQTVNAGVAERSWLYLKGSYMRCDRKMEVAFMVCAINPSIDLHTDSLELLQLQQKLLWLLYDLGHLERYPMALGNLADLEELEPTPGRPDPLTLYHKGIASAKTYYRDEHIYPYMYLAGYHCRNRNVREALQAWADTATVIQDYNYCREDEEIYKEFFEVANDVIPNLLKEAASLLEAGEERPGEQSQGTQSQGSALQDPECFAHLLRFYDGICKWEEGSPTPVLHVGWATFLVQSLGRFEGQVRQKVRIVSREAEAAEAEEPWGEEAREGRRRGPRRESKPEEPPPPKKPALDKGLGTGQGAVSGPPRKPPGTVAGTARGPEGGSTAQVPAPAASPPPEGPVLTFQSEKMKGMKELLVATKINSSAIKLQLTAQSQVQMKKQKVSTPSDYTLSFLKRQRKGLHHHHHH
Experiment: Menin/MLL homogenous time-resolved fluorescence (HTRF) assay
Conditions: 30 min incubation
The meaning of pIC50 here: minus log10 of the concentration in molar units.

For orientation, consider the following solved cases.
For reference, reported pIC50 for Cc1cncc2c1c(CC1CN(CC3CCOCC3)C1)cn2-c1ccc(F)cc1C(=O)N(C)C1CCOC1 (stereo not drawn) stands at 8.77

For reference, reported pIC50 for Cc1cncc2c1c(C[C@@H]1CCN(CC3CCOCC3)C1)cn2-c1ccc(F)cc1C(=O)N1CC[C@@H](O)C1(C)C (single isomer, unassigned) [Compound 364a] stands at 10.01

For reference, reported pIC50 for Cc1cncc2c1c(CC1CNC(CC3CCOCC3)C1)cn2-c1ccc(F)cc1C(=O)N(C)C(C)C (single isomer, unassigned) [Compound 134b] stands at 9.01

Others:
For reference, reported pIC50 for CC(=O)N1CCC(CN2CCC(Cc3cn(-c4ccc(F)cc4C(=O)N(C)C(C)C)c4cncc(C)c34)C2C)CC1 (stereo not drawn) [Compound 227] stands at 9.18

For reference, reported pIC50 for Cc1cncc2c1c(C[C@@H]1CCN(CC3CCOCC3)C1)cn2-c1ccc(F)cc1C(=O)N(C[C@H](C)O)C(C)C (single isomer, unassigned) [Compound 365b] stands at 10.09

For reference, reported pIC50 for Cc1cncc2c1c(CC1CN(CC3CCOC3)C1)cn2-c1ccc(F)cc1C(=O)N(C)C(C)C (stereo not drawn) stands at 10.47
